- testedSystem: T1, recombinant soluble human TREM2 protein (human TREM2 ECD-FlagHis) (human, UniProt Q9NZC2 19-174)
- T1 sequence: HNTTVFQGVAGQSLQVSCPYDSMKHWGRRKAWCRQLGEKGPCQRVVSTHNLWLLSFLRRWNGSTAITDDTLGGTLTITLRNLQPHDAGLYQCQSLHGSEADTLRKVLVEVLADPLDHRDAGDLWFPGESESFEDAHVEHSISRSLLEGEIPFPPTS
- method: Octet BLI binning; competitor: load Ab 26A10
assayMetric: sandwich binding signal
Response field accepts a number only; no unit should be typed.

Query :: Need sandwich binding signal, item 10E3 (antibody, human IgG2, V domains shown, human IgG2 from hybridoma) VH: EVQLVQSGAEVKKPGESLMISCKGSGYSFTNYWIGWVRQMPGKGLEWMGIIYPGDSDTRYSPSFQGQVTISADKSISTAYLQWSSLKASDTAMYFCARRRQGIWGDALDIWGQGTLVTVSS VL: EIVMTQSPATLSVSPGERATLSCRASQSVSSNLAWFQQKPGQAPRLLIYGASTRATGIPARFSVSGSGTEFTLTISSLQSEDFAFYYCLQDNNWPPTFGPGTKVDIK
Result :: 0.367

Query :: Which sandwich binding signal value belongs to 16B8 (antibody, human IgG4, V domains shown, human IgG4 (G4) from hybridoma) VH: QVQLVQSGAEVKKPGASVKVSCKASGYTFTNYGISWVRQAPGQGLEWMGWISAYNGNTNYAQKLQGRVTMTTDTSTSTVYMELRSLRSDDTAVYYCARRGYSYGSFDYWGQGTLVTVSS VL: DIQMTQSPSSVSASVGDRVTVTCRASQDINSWLAWYQQKPGKAPKLLIYAASSLQTGVPSRFSGSGSGTDFTLTISSLQPEDFATYSCQQSNSFPITFGQGTRLEIK ?
Result :: 0.028

Query :: Give its sandwich binding signal value. Item: 24F4 (antibody, human IgG2, V domains shown, human IgG2 from hybridoma) VH: EVQLVQSGAEVKKPGESLKISCKGSGYTFTSYWIGWVRQMPGKGLEWMGIIYPGDSDTRYSPSFQGQVTISVDKSSSTAYLQWSSLKASDTAIYYCTRQAIAVTGLGGFDPWGQGTLVTVSS VL: EIVLTQSPGTLSLSPGERATLSCRASQSVSSSYLAWYQQKPGQAPRLLIYGASSRATGIPDRFSGSGSGTDFTLTISRLEPEDFALYYCQQYDTSPFTFGPGTKVDIK
Result :: 0.319

Query :: For the binder 13E7 (antibody, human IgG2, V domains shown, human IgG2 from hybridoma) VH: EVQLVQSGAEVKKPGESLMISCKGSGYSFTSYWIGWVRQMPGKGLEWMGIIYPGDSDTRYSPSFQGQVTISADKSISTAYLQWSSLKASDTAMYFCARRRQGIWGDALDFWGQGTLVTVSS VL: EIVMTQSPATLSVSPGERATLSCRASQSVSSNLAWFQQKPGQAPRLLIYGASTRATGIPARFSVSGSGTEFTLTISSLQSEDFAVYYCLQDNNWPPTFGPGTKVDIK , what sandwich binding signal is on record?
Result :: 0.371

Query :: Fill blank: measured sandwich binding signal of the binder 6E7 (antibody, human IgG2, V domains shown, human IgG2 from hybridoma) VH: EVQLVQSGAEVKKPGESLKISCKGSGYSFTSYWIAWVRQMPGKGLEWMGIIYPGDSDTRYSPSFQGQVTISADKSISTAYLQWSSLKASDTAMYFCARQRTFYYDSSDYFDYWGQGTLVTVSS VL: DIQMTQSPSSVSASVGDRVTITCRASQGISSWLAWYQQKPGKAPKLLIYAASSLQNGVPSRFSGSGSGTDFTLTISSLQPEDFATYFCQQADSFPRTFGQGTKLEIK is ____.
Result :: 0.475

Query :: Look at this binder and give its reported sandwich binding signal. 32E3 (antibody, human IgG2, V domains shown, human IgG2 from hybridoma) VH: EVQLVQSGAEVKKPGESLKISCKGSGYSFTSYWIGWVRQMPGKGLEWMGIIYPGDSDTRYSPSFQGQVTISADKSISTAYLQWSTLKASDTAIYYCARHDIIPAAPGAFDIWGQGTMVTVSS VL: EFVLTQSPGTLSLSPGERATLSCRASQIISSNYLAWYQQKPGQAPRLLIYSASSRATGIPDRFSGSGSGTDFTLTISRLEPEDFAVYYCQQFDSSPITFGRGTRLDIK
Result :: 0.157

Query :: Look at this binder and give its reported sandwich binding signal. 5E3 (antibody, human IgG2, V domains shown, human IgG2 from hybridoma) VH: QVQLVQSGAEVKKPGASVKVSCKASGYTFTGYYIHWVRQAPGLGLEWMGWINPYSGGTTSAQKFQGRVTMTRDTSISSAYMELSRLRSDDTAVYYCARDGGYLALYGTDVWGQGTTVTVSS VL: DIQMTQSPSSLSASVGDRVTITCRASQGISNYLAWFQQKPGKAPKSLIYAASSLQSGVPSKFSGSGSGTDFTLTISSLQPEDFATYYCQQYSTYPFTFGPGTKVDIK
Result :: -0.052
